# Test system: NCI-H1341 complex spheroids, percent test/control
# measurementProtocol: Anticancer human tumor NCI-H1341 cell line growth inhibition [AhR];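 note: spheroids exposed to agents for seven days before readout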
# experimentalConditions: second compound 0.1 µM; first compound 0.03 µM; hits give low values
Documented viability, T/C across a set of compounds
I only need the number, in %, no unit after it.

Look over these answered cases.
# compound, viability, T/C, %
records = [
    ("CC(C)CC(NC(=O)C(Cc1ccccc1)NC(=O)c1cnccn1)B(O)O (centres undefined) + Cc1ccccc1N=Nc1ccc(NC(=O)c2ccnn2C)c(C)c1", 0.15),
    ("Nc1ncn(C2CC(O)C(CO)S2)c(=O)n1 (centres undefined) + CC(CO)NC(=O)c1cc(-c2ccc(Cl)cc2)nn(-c2cnn(C)c2)c1=O", 89.3),
    ("CC(C)CC(NC(=O)C(Cc1ccccc1)NC(=O)c1cnccn1)B(O)O (centres undefined) + Cc1cncc(-c2nc(NCCc3c[nH]c4ccccc34)c3ncn(C(C)C)c3n2)c1", 0.1),
    ("O=C(C=Cn1cnc(-c2cc(C(F)(F)F)cc(C(F)(F)F)c2)n1)NNc1cnccn1 + Cc1cncc(-c2nc(NCCc3c[nH]c4ccccc34)c3ncn(C(C)C)c3n2)c1", 77),
    ("O=C(C=Cn1cnc(-c2cc(C(F)(F)F)cc(C(F)(F)F)c2)n1)NNc1cnccn1 + Cc1ccccc1N=Nc1ccc(NC(=O)c2ccnn2C)c(C)c1", 63.4),
]

Input: For the compound Nc1ncn(C2CC(O)C(CO)S2)c(=O)n1 (centres undefined) + Cc1ccccc1N=Nc1ccc(NC(=O)c2ccnn2C)c(C)c1 , report viability, T/C.
Output: 65

Input: Fill in viability, T/C for record CCc1c2c(nc3ccc(O)cc13)-c1cc3c(c(=O)n1C2)COC(=O)[C@]3(O)CC + Cc1cncc(-c2nc(NCCc3c[nH]c4ccccc34)c3ncn(C(C)C)c3n2)c1
Output: 31.9

Input: Identify measured viability, T/C associated with Nc1ncn(C2CC(O)C(CO)S2)c(=O)n1 (centres undefined) + Cc1cncc(-c2nc(NCCc3c[nH]c4ccccc34)c3ncn(C(C)C)c3n2)c1
Output: 88.3

Input: Provide only the value of recorded viability, T/C for CCN(c1cc(-c2ccc(CN3CCOCC3)cc2)cc(C(=O)NCc2c(C)cc(C)[nH]c2=O)c1C)C1CCOCC1 + CC(CO)NC(=O)c1cc(-c2ccc(Cl)cc2)nn(-c2cnn(C)c2)c1=O
Output: 72.4

----------
# Tested on: NCI-H1341 complex spheroids, percent test/control
# measurementProtocol: Anticancer human tumor NCI-H1341 cell line growth inhibition [AhR];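 note: spheroids exposed to agents for seven days before readout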
# experimentalConditions: second compound 10 µM; first compound 0.000949 µM; hits give low values
Catalogue of molecules with associated viability, T/C

The cases that follow already have their viability, T/C on record.
# molecule, viability, T/C
measured = [
    ("CCc1c2c(nc3ccc(O)cc13)-c1cc3c(c(=O)n1C2)COC(=O)[C@]3(O)CC + Cc1ccccc1N=Nc1ccc(NC(=O)c2ccnn2C)c(C)c1", "54.3%"),
    ("CCc1c2c(nc3ccc(O)cc13)-c1cc3c(c(=O)n1C2)COC(=O)[C@]3(O)CC + CC(CO)NC(=O)c1cc(-c2ccc(Cl)cc2)nn(-c2cnn(C)c2)c1=O", "61%"),
]

Input: Note down viability, T/C recorded for Nc1ncn(C2CC(O)C(CO)S2)c(=O)n1 (stereo not drawn) + Cc1ccccc1N=Nc1ccc(NC(=O)c2ccnn2C)c(C)c1
Output: 51.4%

Cited source: PubChem BioAssay AID1919014
